// data source = PubChem BioAssay (NCI)

System: U251 CNS
Assay: NCI-60 one-dose screen, 48 h
Conditions: 10 µM unless noted
Procedure: Growth inhibition of the U251 human tumor cell line is measured as a screen for anti-cancer activity. Cells are grown in 96 well plates and exposed to the test compound for 48 hours. Compounds are tested at a single concentration, which is 10^-5 M for most compounds. The reported endpoint is percent growth (GI% or GIPRCNT), where numbers from 0 - 100% represent growth inhibition, and numbers from -100% - 0 represent cell death. For example, a value of 40 represents 60% growth inhibition. […]
About 83,000 compounds went through this panel and 20% of them were active in at least one assay; those are over-represented in the sample as a whole. Activity calls are given as the source filed them. How the source made its calls: active means growth percent below 10; inactive means the rest.
Give one outcome, nothing more. List: YES = active, NO = inactive

# lookup: test call for CCOC(=O)C1=C(C)NC(=O)NC1c1ccc(OCC(=O)N/N=C/c2ccc(Cl)cc2)cc1 (stereo not given)
NO

What was the test verdict on `COC1=CC(c2ccc[nH]2)=N/C1=C\c1[nH]c(C)c(C(=O)CCCCC(=O)Nc2ccccc2)c1C` ?
YES

# lookup: test call for `C=C1C(=O)O[C@H]2[C@H]1CC/C(COC(=O)NCCc1ccc(Br)cc1)=C\CC[C@@]1(C)O[C@@H]21`
NO

For `Cc1cc(Nc2nc(C(=O)Nc3ccccc3)nc3ccccc23)n[nH]1` , which call appears in the assay record?
NO

Dear colleague, could you share the recorded outcome for `NC(=O)NNC(=O)c1ccccc1` when you have a moment?
NO

Record request — test call for CCOC(=O)c1ccccc1NC(c1ccccc1)c1ccc2cccnc2c1O (stereo not given)
NO

Returns: the outcome recorded for CC1Cc2c(N(C)C)ncnc2N(C)c2ccc(O)cc21 (stereo not given) in this assay.
NO

Answer briefly: the call reported for `Cc1cccc(NC(=O)c2sc3nc4c(cc3c2N)CCCC4)c1` in this assay.
NO

What was the test verdict on `CSc1ccccc1C#C/C=C\C#Cc1ccccc1N1CCCCC1=O` ?
NO

For COc1ccc2c(c1)C(C)Cc1c(N(C)C)ncnc1N2C (stereo not given) , what call appears in the results of this test?
NO
